# Procedure text: gradient 5% acetonitrile 3 min, to 50% in 2 min, to 85% in 15 min, held 3 min, 100 µL/min
# Study conditions: column: Zorbax Extend-C18 2.1 x 50 mm; eluents: water / acetonitrile, 0.1% formic acid
Readout kind: RP-LC retention time (s)
All answers are understood in s, so give the number only.

Task item: Requested field: RP-LC retention time. Item: `O=C(NCc1ccc(F)cc1)N1CCC(OC2CCN(Cc3ccccc3)CC2)CC1`
Reply: 658

Task item: Give its RP-LC retention time value. Item: `CC(C)(C)c1cc(C(=O)Nc2ccccc2F)nc2ccnn12`
Reply: 1380

Task item: Given the entry Cc1noc(C2CN(C(=O)COc3ccc(Cl)cc3)CC23CCOCC3)n1 (stereo not drawn) , report its measured RP-LC retention time.
Reply: 768

Task item: Report RP-LC retention time for `C=CCn1c(=O)c2ccccc2n(Cc2nc(-c3ccc4c(c3)OCO4)no2)c1=O` please.
Reply: 998

Task item: Dear colleague, I am looking for the recorded RP-LC retention time of the following compound: CCCOC(=O)C1=C(C)NC2=C(C(=O)CCC2)C1c1ccc(OC)c(OC)c1OC (stereo not drawn)
Reply: 791

Task item: Recorded RP-LC retention time of COC(=O)c1ncn2c1C(=O)N(c1cc(C)ccc1C)C(C)(C(=O)NCc1ccccc1)C2 (stereo not drawn) , please.
Reply: 731

Task item: Dear colleague, I am looking for the recorded RP-LC retention time of the following compound: `O=C(NC1CCCCC1)c1ccc(CN2CCN(Cc3ccc(F)cc3)C(=O)C2=O)cc1`
Reply: 783

Task item: Looking for the measured RP-LC retention time of `O=C(Nc1ccc2c(c1)OCCO2)c1nn(CC2CC2)c2c1CNCC2` , can you help?
Reply: 568

Task item: Find the recorded RP-LC retention time belonging to `CN1CCCc2cc(C(=O)NCc3ccccc3F)sc21` and report it.
Reply: 915

Task item: Tell me the measured RP-LC retention time of CCN1CCC2(CC1)N=C(c1ccccc1)CC(c1cccc(OC)c1O)N2 (stereo not drawn) , please.
Reply: 584

Task item: What measured RP-LC retention time goes with COc1ccc(C(C)NC(=O)C2CCN(C(=O)c3ncn4c3COC(c3ccccc3)C4)CC2)cc1 (stereo not drawn) ?
Reply: 754

Task item: For the compound `CC(C)c1ccc(NC(=O)Cn2cnc3c(sc4nc(-c5ccccc5)ccc43)c2=O)cc1` , what RP-LC retention time is on record?
Reply: 1180

Task item: Requested field: RP-LC retention time. Item: `O=C(Nc1ccc(F)cc1)C1CCN(S(=O)(=O)c2cc(C(=O)N3CCCCCC3)cs2)CC1`
Reply: 920

Task item: Record request: RP-LC retention time value, item `Cc1cc(-n2nnc(C(=O)N3CCC4(CC3)OCCO4)c2-c2ccncc2)ccc1F`
Reply: 715

Task item: So what does the record say about RP-LC retention time for COc1nc2ccccc2nc1N1CCCC(C(=O)Nc2cc(F)ccc2F)C1 (stereo not drawn) ?
Reply: 1200

Task item: RP-LC retention time for `CC(C)n1nc(CNC(=O)CNC(=O)c2ccccc2)c2ccccc21` ?
Reply: 740

Task item: Reported RP-LC retention time, compound `COC(=O)c1ccc(NC(=O)c2csc(-c3cn(C)c4ncccc34)n2)cc1` : ____
Reply: 990

Task item: Give its RP-LC retention time value. Item: `CCNC(=O)c1cc(N(C)C)nc2ccccc12`
Reply: 567

Task item: RP-LC retention time for `CN(Cc1ccccc1)C(=O)c1cc2cccnc2n(Cc2ccccc2)c1=O` ?
Reply: 950

Task item: I would be grateful if you could share the reported RP-LC retention time for `O=C(c1cccc(-c2nccnc2N2CCCC2)c1)N1CCN(c2ccccc2)CC1` .
Reply: 972

Task item: Field request: RP-LC retention time | item: CCC1Oc2ccc(S(=O)(=O)N3CCC(C(=O)NCCc4ccccc4)CC3)cc2NC1=O (stereo not drawn)
Reply: 872

Task item: What value of measured RP-LC retention time is listed for O=C(NCCc1cccnc1)C1CCc2nc(N3CCCC3)ncc2C1 (stereo not drawn) ?
Reply: 532

Task item: // query RP-LC retention time value for entry `CCOc1cccc(CNc2cc(-n3nc(C)cc3C)ncn2)c1`
Reply: 987

Task item: Please give the measured RP-LC retention time for this compound: `CN(C(=O)Cn1nc(Cc2cccnc2)c2ccccc2c1=O)C1CCCCC1`
Reply: 640

Task item: Requested field: RP-LC retention time. Item: `Cc1sc(NC(=O)c2cccc(Br)c2)nc1-c1ccc2c(c1)N(C)C(=O)CO2`
Reply: 943

Task item: Using the record for `N#Cc1ccc(-c2nc(-c3ccc4c(c3)nnn4CCC(=O)N3CCCC3)no2)c(F)c1` , report its RP-LC retention time.
Reply: 849

Task item: What RP-LC retention time value was documented for this compound, `CCCc1noc(-c2ccc3nnc(CC(=O)Nc4ccc(F)c(C)c4)n3c2)n1` ?
Reply: 921

Task item: Look up RP-LC retention time: `O=C(c1cnc2ccccc2n1)N1CCN(Cc2ccsc2)CC1`
Reply: 556

Task item: Look at this compound and give its reported RP-LC retention time. Cc1noc(C)c1CCNC(=O)C1CCN(C(=O)c2ncn3c2COC(c2ccc(F)cc2)C3)CC1 (stereo not drawn)
Reply: 711

Task item: // RP-LC retention time lookup, key: `COCCNC(=O)c1cc2c(s1)N(C)CCC2`
Reply: 703

Task item: Quick one: RP-LC retention time of `Cc1ccc(-n2nc(N3CCCN(C(=O)c4ccc(Br)o4)CC3)ccc2=O)cc1C` ?
Reply: 824

Task item: So what's the measured RP-LC retention time for this one? `Cc1ccc(C)c(NC(=O)Cn2nc3n(c2=O)CCCC3)c1`
Reply: 708

Task item: Returns the measured RP-LC retention time for the input compound. Input: `O=C(Cn1cccc1-c1nc(-c2ccc3c(c2)OCO3)no1)Nc1cccc(Cl)c1`
Reply: 1060

Task item: Param item = CCCN(CC1CCOC1)C(=O)Nc1ccc(OCC)cc1 (stereo not drawn) ; retrieve measured RP-LC retention time.
Reply: 750

Task item: Would you kindly share the measured RP-LC retention time for `CCCCN(Cc1ccco1)C(=O)Cn1nc(Cc2ccncc2)c2ccccc2c1=O` ?
Reply: 679

Task item: # RP-LC retention time lookup, item `O=C(Cn1nc2c(N3CCN(c4ccccc4)CC3)nccn2c1=O)Nc1ccccc1Cl`
Reply: 928

Task item: Suppose we examine the compound `COc1cc(OC)c(NC(=O)CSc2nccnc2N2CCSCC2)cc1Cl` ; what RP-LC retention time value has been reported?
Reply: 1020

Task item: Bench note: what RP-LC retention time did CC(C)CCNC(=O)C1CCCN(S(=O)(=O)c2ccc3nc(-c4ccccc4)[nH]c3c2)C1 (stereo not drawn) show?
Reply: 841

====

# Procedure text: gradient 5% acetonitrile 3 min, to 50% in 2 min, to 85% in 15 min, held 3 min, 100 µL/min
# Study conditions: column: Zorbax Extend-C18 2.1 x 50 mm; eluents: water / acetonitrile, 0.1% formic acid
Readout kind: RP-LC retention time (s)
Numeric answer only, unit s assumed.

Task item: Request the reported RP-LC retention time associated with `CC(=O)NCc1nc(-c2ccccc2Cl)no1`
Reply: 673

Task item: Please look up its RP-LC retention time: COCCNC(=O)C1CCN(C(=O)c2ncn3c2COC(c2ccc(F)cc2)C3)CC1 (stereo not given)
Reply: 645

Task item: Please look up its RP-LC retention time: `Cc1nc(N2CCOCC2)c2c(C(=O)Nc3ccc(F)cc3Cl)c(C)oc2n1`
Reply: 896

Task item: Give its RP-LC retention time value. Item: `O=S(=O)(Nc1ccc(N2CCOCC2)cc1)c1ccc(-c2nnc(C3CCC3)o2)o1`
Reply: 828

Task item: Looking for the measured RP-LC retention time of `Cc1ccc(Nc2c(-c3ccc(N(C)C)cc3)nc3cnccn23)cc1` , can you help?
Reply: 855

====

Can you tell me RP-LC retention time for the items I'm about to list?
# Procedure text: gradient 5% acetonitrile 3 min, to 50% in 2 min, to 85% in 15 min, held 3 min, 100 µL/min
# Study conditions: column: Zorbax Extend-C18 2.1 x 50 mm; eluents: water / acetonitrile, 0.1% formic acid
Quick note: number first, unit second.

Task item: Which RP-LC retention time value is on record for `CC(C)c1nnc(-c2cccnc2N2CCN(C(=O)c3ccc4[nH]ccc4c3)CC2)o1` ?
Reply: 749 s

Task item: Can you look up the measured RP-LC retention time of `CCN1C(=O)C2(CCN(C(=O)NC(C)C)CC2)c2ccccc21` for me?
Reply: 740 s

Task item: Item `O=C(Cn1cccc1-c1nc(-c2ccc(F)cc2)no1)Nc1ccc2c(c1)OCO2` has what recorded RP-LC retention time?
Reply: 1010 s

Task item: May I ask what RP-LC retention time has been recorded for COc1cc(CN2CCCCCC2c2cccs2)ccc1OCC(N)=O (centres undefined) ?
Reply: 611 s

Task item: What measured RP-LC retention time goes with O=C1CC(c2noc(C3CCCC3)n2)CN1c1ccccc1 (centres undefined) ?
Reply: 917 s

Task item: For the molecule CCN(CC)C(=O)C1CCCN(C(=O)c2nn(C)c3c2CN(C(=O)c2ccco2)CC3)C1 (centres undefined) , what RP-LC retention time is on record?
Reply: 658 s

Task item: # RP-LC retention time lookup, item `O=C(CC1CCN(C(=O)c2cc3cc(Cl)ccc3[nH]2)CC1)N1CCN(c2ccccn2)CC1`
Reply: 669 s

Task item: Which RP-LC retention time value belongs to `O=C(N[C@H]1C[C@@H]2C[C@H]1N(C(=O)c1ccccn1)C2)c1ccccc1` ?
Reply: 622 s

Task item: Would you kindly share the measured RP-LC retention time for CC(NC(=O)CN1C(=O)CCn2nc(-c3cn(C)c4ccccc34)cc21)c1ccc2c(c1)OCCO2 (centres undefined) ?
Reply: 797 s

Task item: Param item = Cc1ccc(-n2nc(C)c3sc(N4CCCC(C(=O)Nc5cc(Cl)ccc5C)C4)nc32)cc1 (centres undefined) ; retrieve measured RP-LC retention time.
Reply: 1360 s

Task item: Report RP-LC retention time for `O=C(Nc1ccc(F)cc1)C1CCN(S(=O)(=O)c2cc(-c3noc(C4CC4)n3)cs2)CC1` please.
Reply: 1010 s

Task item: Find the recorded RP-LC retention time belonging to `Cc1noc2nc(C)n(CC(=O)Nc3ccccc3F)c(=O)c12` and report it.
Reply: 752 s

Task item: Tell me the measured RP-LC retention time of C=CCN1CC(c2nc3ccccc3n2CC(O)COc2cc(C)ccc2C)CC1=O (centres undefined) , please.
Reply: 664 s

Task item: Endpoint output: RP-LC retention time of `O=C(Nc1nc(CC(=O)N2CCN(c3ncccn3)CC2)cs1)C1CCCC1` . Value?
Reply: 669 s

Task item: GET /values?readout=RP-LC retention time&item= `COc1cc(OC)cc(-c2noc(CCn3nc(-c4ccc(Cl)cc4)ccc3=O)n2)c1`
Reply: 1060 s

Task item: Please give the measured RP-LC retention time for this molecule: `Cc1ccc(-n2nc(C)c3nc(CCC(=O)N4CCN(c5ccccn5)CC4)c(=O)n(C)c32)cc1`
Reply: 627 s

Task item: // returns reported RP-LC retention time for input COCCC(=O)N1CCC(N2C(=O)C(OC)C23CCOCC3)CC1 (centres undefined)
Reply: 555 s

Task item: What RP-LC retention time value was documented for this molecule, `O=S(=O)(c1ccccc1)N1CCC(c2noc(-c3cccc(F)c3)n2)CC1` ?
Reply: 1110 s

Task item: RP-LC retention time lookup needed for Cc1ccc(S(=O)(=O)N2CCCC(Cn3c(C4CC4)nc4cccnc43)C2)c(C)c1 (centres undefined) , thanks.
Reply: 832 s
